- system-under-test: GIRK1/2 (UniProt P48542+P48549)
- Sequence (P48549 whole entry): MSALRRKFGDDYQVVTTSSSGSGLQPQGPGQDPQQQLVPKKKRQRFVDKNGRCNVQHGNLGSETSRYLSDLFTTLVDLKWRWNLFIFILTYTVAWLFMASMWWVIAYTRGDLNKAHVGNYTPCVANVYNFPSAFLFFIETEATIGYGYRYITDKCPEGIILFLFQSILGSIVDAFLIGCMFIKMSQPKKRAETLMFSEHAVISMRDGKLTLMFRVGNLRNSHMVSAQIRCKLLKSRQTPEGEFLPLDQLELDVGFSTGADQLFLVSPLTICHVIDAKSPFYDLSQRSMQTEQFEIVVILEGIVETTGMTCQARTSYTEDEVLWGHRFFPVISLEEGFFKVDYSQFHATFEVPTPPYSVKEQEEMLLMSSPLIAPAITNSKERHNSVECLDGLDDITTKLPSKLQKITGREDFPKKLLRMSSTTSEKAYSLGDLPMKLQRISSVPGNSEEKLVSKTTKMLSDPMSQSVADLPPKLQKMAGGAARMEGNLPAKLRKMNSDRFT
- Sequence (P48542 whole entry): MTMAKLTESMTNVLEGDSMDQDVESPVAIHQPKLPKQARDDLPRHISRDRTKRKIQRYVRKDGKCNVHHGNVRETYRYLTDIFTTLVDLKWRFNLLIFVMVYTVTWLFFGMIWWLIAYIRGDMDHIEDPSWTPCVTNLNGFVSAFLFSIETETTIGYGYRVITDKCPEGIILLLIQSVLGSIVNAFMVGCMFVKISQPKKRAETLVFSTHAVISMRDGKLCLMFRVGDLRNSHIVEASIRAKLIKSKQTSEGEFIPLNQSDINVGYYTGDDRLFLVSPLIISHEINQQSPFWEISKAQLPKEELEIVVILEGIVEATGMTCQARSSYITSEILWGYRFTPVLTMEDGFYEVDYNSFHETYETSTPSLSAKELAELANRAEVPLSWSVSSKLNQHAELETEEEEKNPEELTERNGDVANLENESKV
- method-summary: two-electrode voltage clamp (TEVC) in Xenopus oocytes expressing GIRK1/2 wild-type
- Type: cell-based, human GIRK1, mouse GIRK2
- Parameters: expressed in transfected cells; host or cells: Xenopus laevis oocytes (cRNA injection)
- experimental-conditions: TEVC, Xenopus oocytes, GIRK1/2 wild-type
experimental-endpoint: pEC50
# log scale: pEC50 equals minus log10 of the concentration in mol/L

Value wanted: pEC50 (GIRK1/2 (UniProt P48542+P48549)) of entry Cc1cc(NC(=O)Nc2ccc(F)s2)n(-c2ccccc2)n1 5.03

Value wanted: pEC50 (GIRK1/2 (UniProt P48542+P48549)) of entry Cc1cc(NC(=O)Nc2ccc(C)s2)n(-c2ccccc2)n1 5.91

Value wanted: pEC50 (GIRK1/2 (UniProt P48542+P48549)) of entry Cc1cc(NC(=O)Nc2ccc(F)c(F)c2)n(-c2ccccc2)n1 [ML297, reference compound] 6.47

Value wanted: pEC50 (GIRK1/2 (UniProt P48542+P48549)) of entry Cc1cc(NC(=O)Nc2cc(Br)cs2)n(-c2ccccc2)n1 5.36

Value wanted: pEC50 (GIRK1/2 (UniProt P48542+P48549)) of entry Cc1cc(NC(=O)Nc2ccc(Cl)s2)n(-c2ccccc2)n1 5.39
